Cited source: ChEMBL document CHEMBL2062487

- System: Pseudomonas aeruginosa
- measurement_description: Antibacterial activity against Pseudomonas aeruginosa by two fold broth dilution method
- Format: functional
recorded_metric: MIC (µg/mL)

compound | test_system | recorded_metric | value_operator | recorded_measurement
Clc1ccc(C2(Cn3cncn3)CO2)cc1 (racemic) | Pseudomonas aeruginosa | MIC | = | 32
O=C(O)c1cn(C2CC2)c2c(Cl)c(N3CCC(NCC(O)(Cn4cncn4)c4ccc(F)c(F)c4)C3)c(F)cc2c1=O (racemic) | Pseudomonas aeruginosa | MIC | = | 0.5
O=C(Cn1cncn1)c1ccc(Cl)cc1Cl | Pseudomonas aeruginosa | MIC | = | 256
OC(Cn1cncn1)(Cn1cncn1)c1ccc(F)cc1F [FLUCONAZOLE] | Pseudomonas aeruginosa | MIC | > | 512
